Numbers sourced from PubChem BioAssay (NCI).

Tested on: K-562 leukemia
Assay: NCI tumour cell line growth inhibition, 48 h
Where a SMILES comes first, the peptide text is derived from it. [ ]: non-standard residue; d: D form. The star is where a group is joined. dTle = CC(C)(C)[C@@H](N)C(=O)O; 4Abz = Nc1ccc(C(=O)O)cc1; NHOH = ON*
EXPERIMENTAL_READOUT: TGI

// solved cases for TGI follow
>>> print(df.to_string())
                                   molecule  reported_measurement
0  Cn1c(N)nc(=O)c2c1N(C1OC(CO)C(O)C1O)CN2Cc1ccccc1 (stereo not drawn)              > 100 µM
1                   O=C(O)c1c(=O)cccc2ssc12               5.51 µM
2        O=C1c2c(ccc3c2CCC3)CC12Cc1ccccc1C2               79.3 µM
3       O=C1C=CC(=O)c2c(O)c(Br)c(Br)c(O)c21               1.75 µM
4  C[C@@H](NC(=O)[C@H](NC(=O)[C@@H]1CCCN1C(=O)CNC(=O)c1ccc(N)cc1)C(C)(C)C)C(=O)NO (H-[4Abz]GP[dTle][dA]-{NHOH})              > 100 µM

Would you mind telling me what TGI value was observed for `Cc1nc2[nH]ncn2c(=O)c1CCCl` ?
> 10 µM

Another molecule to check: `CCN(CC)c1ccc2nc3ccc(N=Nc4c(O)ccc5ccccc45)cc3[n+](-c3ccccc3)c2c1`
> 100 µM

---

System: SF-295 CNS
Assay: NCI tumour cell line growth inhibition, 48 h
*1 amine or outer side, *2 acyl side, *3 side chain or, on linkers, in order; H or OH if unused. Where a SMILES comes first, the peptide text is derived from it. Bridges are numbered along the chain shown (N, C = ends). [ ]: non-standard residue; d: D form. The star is where a group is joined. X34 = O=C(C(CCCCNO[*:3])N[*:1])[*:2]; Fmoc = O=C(OCC1c2ccccc2-c2ccccc21)*
EXPERIMENTAL_READOUT: TGI

COMPOUND	EXPERIMENTAL_READOUT	REPORTED_MEASUREMENT
Oc1c(Br)cc(/C=C/c2cccc(/C=C/c3cc(Br)c(O)c(Br)c3)n2)cc1Br	TGI	47.4 µM
CCN(CC)C(=S)SCN1C(=O)c2ccccc2S1(=O)=O	TGI	> 100 µM
Cc1cccc(C(C)(C)C)c1NC(=O)CCc1nc(=S)[nH][nH]1	TGI	> 100 µM
O=C(NO)[C@@H](Cc1ccccc1)NS(=O)(=O)c1ccc(-c2ccccc2)cc1	TGI	> 25 µM
CC(C)=CCC/C(C)=C\CCC1(C)OC(=O)C2CC21 (stereo not given)	TGI	> 100 µM

// map `CCn1c(-c2nonc2N)nc2c(C#CC(C)(C)O)ncc(OC[C@H]3CCCNC3)c21` to recorded TGI (system: SF-295 CNS)
22 µM

Another compound to check: NC(=O)CNC(=O)C1CCCN1C(=O)C1CCCCNOC(=O)CCC(NC(=O)OCC2c3ccccc3-c3ccccc32)C(=O)NC(Cc2c[nH]c3ccccc23)C(=O)N1 (stereo not given) (Fmoc-EW[X34]PG-NH2; ester 1-3; configuration not given here)
> 100 µM

Another compound to check: COc1cc2c(cc1OC)C(=O)C1(C2)[C@H](c2ccccc2)C2C(=O)c3cc(OC)c(OC)cc3C2[C@H]1c1ccccc1 (stereo not given in full)
> 100 µM

Another compound to check: `CCN(CC)Cc1ccc(C(=S)Nc2ccc(C)cc2)s1`
28.3 µM

Another compound to check: `CC(=O)c1c(CO[N+](=O)[O-])n([O-])c2ccccc2[n+]1=O`
> 100 µM

---

Catalogue of GI50 values
Test system: PC-3 prostate
Assay: NCI tumour cell line growth inhibition, 48 h

// solved cases for GI50 follow
>>> print(df.to_string())
                                smiles_repr  reported_measurement
0  Cc1cc(-c2ccccn2)cc(C)c1/C=C/c1cncc(-c2nn[nH]n2)c1               > 25 µM
1  [N-]=[N+]=NCCCn1c2c(c3ccc([N+](=O)[O-])cc3c1=O)C(=O)c1cc(F)ccc1-2               1.25 µM
2  Cc1cc(N2CCOCC2)nc(N(CCCNc2ccnc3cc(Cl)ccc23)Cc2ccco2)n1               3.03 µM

Here is the next item to consider.
// map `O=C1/C(=C/c2ccc(Cl)cc2)CCC/C1=C\c1ccc(Cl)cc1` to recorded GI50 (system: PC-3 prostate)
5.46 µM

---

Catalogue of TGI values
System: MALME-3M melanoma
Experiment: NCI tumour cell line growth inhibition, 48 h
Where a SMILES comes first, the peptide text is derived from it. [ ]: non-standard residue; d: D form. ξ: configuration not given here. ξLac(3-iPr) = CC(C)CC(O)C(=O)O; NMeV = CN[CH](C(=O)O)C(C)C; NMeA = CN[CH](C)C(=O)O; βAla = NCCC(=O)O
Quick note: give the figure in µM, leave out the unit.

// solved cases for TGI follow
COMPOUND	TESTED_TARGET	UNIT_TAG	TGI
CSc1snc2sc3c(Cl)nnnc3c12	MALME-3M melanoma	µM	29.3
O=C1C=CC(=O)c2c(O)c(Br)c(Br)c(O)c21	MALME-3M melanoma	µM	2.54
Cc1cc2c(C(N)=O)c(N)n(-c3c(C)ccc(O)c3C)c2nc1C	MALME-3M melanoma	µM	18.3
O=C1/C(=C/c2ccc(Oc3ccccc3)cc2)N=C(c2ccccc2)N1c1ccc(S(=O)(=O)Nc2nccs2)cc1	MALME-3M melanoma	µM	86.6
COC(=O)c1cc2c3ccccc3[nH]c2c2sccc12	MALME-3M melanoma	µM	62.7
Oc1ccc(C2c3ccccc3Oc3ccccc32)c2cccnc12	MALME-3M melanoma	µM	27.4
CCC(C)C1NC(=O)C2CCCN2C(=O)C(CC(C)C)OC(=O)CCNC(=O)C(C)N(C)C(=O)C(C(C)C)N(C)C1=O (centres undefined) (cyclo([ξLac(3-iPr)]PI[NMeV][NMeA][βAla]); configuration not given here)	MALME-3M melanoma	µM	45.2
Nc1ccc(-c2cccs2)cc1NC(=O)c1ccc(CCCC(=O)Nc2ccc(C3CC3N)cc2)cc1 (centres undefined)	MALME-3M melanoma	µM	3.77

Here is the next item to consider.
Would you mind telling me what TGI value was observed for CC1=C(O)/C(=C/C(C)CCC/C(C)=C/C=C/C(C)CCCc2ccoc2)OC1=O (centres undefined) ?
49.4

---

System: UO-31 renal
Test: NCI tumour cell line growth inhibition, 48 h; in the data active means GI50 below about 0.43 µM; inactive means the rest
Use one of these outcomes when replying: T = active, F = inactive

See these solved cases before continuing.
                                   compound  category
0  CC(=O)O[C@H]1[C@@H]2OC(=O)C(CSc3ccccc3)[C@@H]2C[C@H]2O[C@]2(C)CC/C=C(\C)CCC[C@@H]1C (stereo not given in full)         F
1  CCc1ccc(C(=Nc2ccc(N(C)C(=O)CN3CCN(C)CC3)cc2)c2c(O)[nH]c3ccc(C(=O)OC)cc23)cc1         T
2    C/C(O)=C(\C#N)C(=O)Nc1ccc(C(F)(F)F)cc1         F

Continue with the compound presented below.
Lab log entry: `CCCCCCCCCNC(=O)/C=C/c1ccc(O)c(O)c1` — outcome as called in the assay?
F

---

System: U251 CNS
Use one of these outcomes when replying: active, inactive

See these solved cases before continuing.
In [3]: df
Out[3]:
                                   compound  category
0  O=C(Nc1cccc(-c2ccc(Cl)c(C(F)(F)F)c2)c1)C1CCN(Cc2cccc3cccnc23)CC1  inactive
1  O=C(/C=C/C12c3ccccc3C(c3ccccc31)C1C(=O)NC(=O)C12)c1ccc(F)cc1 (centres undefined)  inactive
2                   O=C(O)c1c(=O)cccc2ssc12  inactive
3  CC(=O)[CH-]C(=O)c1ccccc1.CC(=O)[CH-]C(=O)c1ccccc1.Cc1cc([O-])ccc1Cl.Cc1cc([O-])ccc1Cl.[Ti+4]  inactive
4  COC(=O)C12OCC34C(CC5C(C)C6=CC(=O)OC6=CC5(C)C3C(O)C1O)OC(=O)C(O)C24 (centres undefined)    active

Lab log entry: `CCn1c(-c2nonc2N)nc2c(C#CC(C)(C)O)ncc(OC[C@H]3CCCNC3)c21` — outcome as called in the assay?
inactive

Another compound to check: `COc1cc(-c2csc(NC(=O)Nc3ccc(C(F)(F)F)cc3)n2)cc(OC)c1OC`
inactive

Another compound to check: `O=C(Nc1cccc(Cl)c1)c1cccc(NC2=C(Cl)C(=O)N(Cc3ccccc3)C2=O)c1`
inactive

Another compound to check: `N#Cc1c(N)nc(N2CCOCC2)c(C#N)c1-c1ccccn1`
inactive
